Data provenance is patent US20100076013A1.

- Test system: CCRF-HSB-2
- Assay Overview: CellTiter-Glo cell viability assay
- Type: cell-based
- Condition Parameters: Homo sapiens; CCRF-HSB-2, T-ALL; 72 hours
Metric: EC50 (µM)
Provide only the numeric value, understood in µM.

Lookup result for CN[C@@H](C)C(=O)N[C@H](C(=O)N1CCC[C@H]1c1nc(C(=O)c2ccc(F)cc2)cs1)C1CCCCC1 ; measured EC50: 6.3

* * *

- Test system: EM-3
- Assay Overview: CellTiter-Glo cell viability assay
- Assay type: cell-based
- Condition Parameters: EM-3, CML; 72 hours
- Procedure: The EC50s were determined using CellTiter-Glo (Promega), a bioluminescent, cell viability assay measuring ATP levels in viable cells. Cells were plated in assay plates and incubated with a range of compound concentrations for 72 hours. Cells were lysed and ATP levels were determined using CellTiter-Glo reagent on a luminometer according to manufacturer's instructions. EC50 refers to the concentration of compound that inhibited 50% of cell growth.
Metric: pEC50
# pEC50: negative log10 of molar concentration; output just the value

Lookup result for CN[C@@H](C)C(=O)N[C@H](C(=O)N1CCC[C@H]1c1nc(C(=O)c2ccc(F)cc2)cs1)C1CCCCC1 ; measured pEC50: 4.86
